- Test Details: Antibiotic serum concentrations in mice following subcutaneous administration (disc method bioassay)
- Type: in vivo, ICR-SLC strain mice
- Condition Parameters: mouse, sc, 50 mg/kg, read-out: Peak concentration
Assay Metric: Cmax (ng/mL)
Answer with a number only, understood to be in ng/mL.

Fill in: Cmax of Cn1nnnc1SCC1=C(C(=O)O)N2C(=O)C(NC(=O)[C@H](NC(=O)c3cnc4cccnc4c3O)c3ccccc3)C2SC1 (stereo partly drawn) is ___
24000

What about this compound? CC(=O)OCC1=C(C(=O)O)N2C(=O)C(NC(=O)[C@H](NC(=O)c3cnccc3O)c3ccccc3)C2SC1 (stereo partly drawn) [Compound (B), reference compound]
26000

What about this compound? O=C(O)C1=C(CSc2cnn[nH]2)CSC2C(NC(=O)[C@H](NC(=O)c3cnc4cccnc4c3O)c3ccccc3)C(=O)N12 (stereo partly drawn)
26000

What about this compound? Cc1nnc(SCC2=C(C(=O)O)N3C(=O)C(NC(=O)[C@H](NC(=O)c4cnc5cccnc5c4O)c4ccccc4)C3SC2)s1 (stereo partly drawn)
38000

What about this compound? CC(=O)OCC1=C(C(=O)O)N2C(=O)C(NC(=O)[C@H](NC(=O)c3cnc4cccnc4c3O)c3ccccc3)C2SC1 (stereo partly drawn)
44000
